- System Tested: TLR8 (Homo sapiens)
- Sequence (Q9NR97 27-1041, species assumed): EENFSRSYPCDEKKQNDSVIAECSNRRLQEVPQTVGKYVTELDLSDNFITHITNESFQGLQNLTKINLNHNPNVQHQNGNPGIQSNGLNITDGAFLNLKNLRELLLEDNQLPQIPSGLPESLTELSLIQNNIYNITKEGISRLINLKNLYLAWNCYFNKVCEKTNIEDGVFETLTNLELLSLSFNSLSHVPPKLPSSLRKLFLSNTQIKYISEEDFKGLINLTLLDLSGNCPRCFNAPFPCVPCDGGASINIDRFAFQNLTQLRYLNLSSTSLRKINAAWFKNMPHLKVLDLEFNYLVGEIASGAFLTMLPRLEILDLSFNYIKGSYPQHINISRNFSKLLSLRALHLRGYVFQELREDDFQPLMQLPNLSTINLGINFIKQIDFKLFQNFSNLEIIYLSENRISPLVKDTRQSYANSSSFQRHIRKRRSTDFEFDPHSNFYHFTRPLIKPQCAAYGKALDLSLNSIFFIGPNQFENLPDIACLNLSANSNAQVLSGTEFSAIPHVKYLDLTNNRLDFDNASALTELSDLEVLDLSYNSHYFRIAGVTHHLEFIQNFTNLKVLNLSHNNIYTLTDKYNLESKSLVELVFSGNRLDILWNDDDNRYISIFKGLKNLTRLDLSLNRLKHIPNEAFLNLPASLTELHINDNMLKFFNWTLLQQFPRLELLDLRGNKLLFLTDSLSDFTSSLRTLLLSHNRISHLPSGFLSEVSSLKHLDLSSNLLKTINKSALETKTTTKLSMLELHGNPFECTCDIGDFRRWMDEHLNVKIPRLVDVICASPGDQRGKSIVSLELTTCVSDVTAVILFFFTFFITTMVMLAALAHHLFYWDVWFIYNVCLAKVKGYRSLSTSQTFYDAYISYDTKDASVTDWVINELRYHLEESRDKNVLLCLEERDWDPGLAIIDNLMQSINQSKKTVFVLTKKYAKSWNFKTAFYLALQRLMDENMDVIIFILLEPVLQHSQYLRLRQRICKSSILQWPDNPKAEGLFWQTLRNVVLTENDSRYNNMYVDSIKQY
- Assay Protocol: TLR8 EC50 assay
- Assay type: cell-based
- Run Parameters: Table 2
Experimental Endpoint: EC50

Parameters: items (list). Returns: EC50 for each item.
1. Nc1ccc(-c2ccc3c(c2)nc(N)c2nc(CCCO)[nH]c23)cn1
2. Nc1nc2cc(-n3cnc4ccccc43)ccc2c2[nH]c(CCCO)nc12
3. Nc1nc2cc(-c3ccncc3)ccc2c2[nH]c(CCCOCc3ccccc3)nc12
4. Nc1nc2cc(CC(=O)O)ccc2c2[nH]c(CCCO)nc12
5. Cc1ccccc1-c1ccc2c(c1)nc(N)c1nc(CCCO)[nH]c12
6. Nc1nc2cc(-c3cccnc3F)ccc2c2[nH]c(CCCOCc3ccccc3)nc12

// result
["> 100 µM", "> 100 µM", "> 100 µM", "> 100 µM", "> 100 µM", "> 100 µM"]

Every entry's value here was drawn from patent US11072612B2.
